target-of-assay: Bcl-2 protein (Recombinant Human Bcl-2 Protein) (Homo sapiens)
Construct: purchased Novus Biologicals NBP2-34889
Sequence (P10415 whole entry): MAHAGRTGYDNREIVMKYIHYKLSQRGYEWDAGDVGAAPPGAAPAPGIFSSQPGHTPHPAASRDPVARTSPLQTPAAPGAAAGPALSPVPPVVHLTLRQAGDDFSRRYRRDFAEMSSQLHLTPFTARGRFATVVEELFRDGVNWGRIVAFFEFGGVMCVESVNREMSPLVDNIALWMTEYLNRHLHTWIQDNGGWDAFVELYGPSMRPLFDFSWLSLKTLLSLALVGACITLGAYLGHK
run-description: AS-MS evaluation of binding of the Example 4 mixture library (1200 compounds/well) to Bcl-2, ASMS ratio (%)
condition-context: AS-MS, Example 4 mixture library, Bcl-2, replicate n = 1
endpoint: ASMS ratio (%) n = 1

ASMS ratio (%) n = 1 in this record for CCOc1cncc(-c2cnn(-c3cc(C(=O)N4CCN(c5ccc(C(=O)NS(=O)(=O)c6ccc(NCCSc7ccccc7)c(C(F)(F)F)c6)cc5)CC4)cc(C(F)(F)F)c3)c2)c1 : −3.7

(a) CCOc1cncc(C#Cc2cncc(C(=O)N3CCN(c4ccc(C(=O)NS(=O)(=O)c5ccc(NCCSc6ccccc6)c(C(F)(F)F)c5)cc4)CC3)c2)c1
(b) CCOc1cccc(C#Cc2ccccc2CN2CCN(c3ccc(C(=O)NS(=O)(=O)c4ccc(NCCSc5ccccc5)c(C(F)(F)F)c4)nn3)CC2)c1
(c) CCOc1cccc(-c2ccc(C(=O)N3CCN(c4ccc(C(=O)NS(=O)(=O)c5ccc(NCCSc6ccccc6)c(C(F)(F)F)c5)cc4)CC3)cc2F)c1
(d) CCOc1cccc(-c2ccc(CN3CCN(c4ccc(C(=O)NS(=O)(=O)c5ccc(NCCSc6ccccc6)c(C(F)(F)F)c5)nn4)CC3)cc2F)c1
Req: rank_up(items): orders items by reported ASMS ratio (%) n = 1 in ascending numerical order. Write out the labels following the order that was asked for.
Resp: c, d, a, b

Just for reference, patent US20250154686A1 is where these values come from.
